The reported measurements were obtained from paper PMC9542285.

system: PBMCs; details: read-out: EC50 PBMCs (VPD450 proliferation); PBMCs stimulated with anti-CD3/anti-CD28 beads, 72 h
MEASURE NAME: EC50 (µM)
Please state the figure in µM; there is no need to write the unit.

Output EC50 of COc1c(C)c2c(c(O)c1C/C=C(\C)CCC(=O)Nc1nc3ccccc3o1)C(=O)OC2 [A2, N-(benzo[d]oxazol-2-yl) mycophenolate]
5.6

----------
Item-by-item account of viability at 48 h, 100 µM
assay: In vitro cytotoxicity assay with XTT dye, T-Jurkat; assay type: cell-based, human; settings: human, T-Jurkat cell line, […], trypan blue exclusion
Please state the figure in %; there is no need to write the unit.

Consider the worked cases shown below.
>  <MOLECULE>
COc1c(C)c2c(c(O)c1C/C=C(\C)CCC(=O)Nc1nc3ccccc3s1)C(=O)OC2 [A1, N-(benzo[d]thiazol-2-yl) mycophenolate]

>  <MEASURED NUMBER>
68

$$$$
>  <MOLECULE>
COc1c(C)c2c(c(O)c1C/C=C(\C)CCC(=O)Nc1nc3c(OC)cccc3s1)C(=O)OC2

>  <MEASURED NUMBER>
69

$$$$
>  <MOLECULE>
COc1c(C)c2c(c(O)c1C/C=C(\C)CCC(=O)Nc1nc3ccccc3[nH]1)C(=O)OC2

>  <MEASURED NUMBER>
74

$$$$

Output viability at 48 h, 100 µM of COc1c(C)c2c(c(O)c1C/C=C(\C)CCC(=O)Nc1nc3cc(C)c(C)cc3s1)C(=O)OC2
51

Output viability at 48 h, 100 µM of COc1c(C)c2c(c(O)c1C/C=C(\C)CCC(=O)Nc1nc3ccc(F)cc3s1)C(=O)OC2
56

Output viability at 48 h, 100 µM of COc1c(C)c2c(c(O)c1C/C=C(\C)CCC(=O)Nc1nc3c(C)cccc3s1)C(=O)OC2
82

----------
assay: Precipitation / solubility of compounds in culture; format: physicochemical; design: key: (↓) – precipitating compound; settings: PBMC culture, DMSO with Tween20
MEASURE NAME: Precipitating compound flag (VPD450 assay, PBMCs)

>  <SMILES CODE>
COc1c(C)c2c(c(O)c1C/C=C(\C)CCC(=O)Nc1nc3ccc([N+](=O)[O-])cc3s1)C(=O)OC2

>  <RESULT>
(↓)

$$$$
>  <SMILES CODE>
COc1c(C)c2c(c(O)c1C/C=C(\C)CCC(=O)Nc1nc3ccc(F)cc3s1)C(=O)OC2

>  <RESULT>
(↓)

$$$$
>  <SMILES CODE>
COc1ccc2nc(NC(=O)CC/C(C)=C/Cc3c(O)c4c(c(C)c3OC)COC4=O)sc2c1

>  <RESULT>
(↓)

$$$$

----------
test: In vitro cytotoxicity assay with XTT dye, PBMCs; assay type: cell-based, human; details: human, […], trypan blue exclusion
MEASURE NAME: viability at 72 h, 100 µM (%)
Please state the figure in %; there is no need to write the unit.

Output viability at 72 h, 100 µM of COc1c(C)c2c(c(O)c1C/C=C(\C)CCC(=O)Nc1nc3c(C)cccc3s1)C(=O)OC2
65

----------
assay: Precipitation / solubility of compounds in culture; assay type: physicochemical; conditions: XTT assay conditions
MEASURE NAME: Solubility in PBMC culture

Consider the worked cases shown below.
>  <SMILES CODE>
COc1c(C)c2c(c(O)c1C/C=C(\C)CCC(=O)Nc1nc3c(C)cccc3s1)C(=O)OC2

>  <Solubility in PBMC culture>
limited solubility

$$$$
>  <SMILES CODE>
COc1c(C)c2c(c(O)c1C/C=C(\C)CCC(=O)Nc1nc3ccc([N+](=O)[O-])cc3s1)C(=O)OC2

>  <Solubility in PBMC culture>
limited solubility

$$$$
>  <SMILES CODE>
COc1c(C)c2c(c(O)c1C/C=C(\C)CCC(=O)Nc1nc3c(OC)cccc3s1)C(=O)OC2

>  <Solubility in PBMC culture>
limited solubility

$$$$
>  <SMILES CODE>
COc1ccc2nc(NC(=O)CC/C(C)=C/Cc3c(O)c4c(c(C)c3OC)COC4=O)sc2c1

>  <Solubility in PBMC culture>
limited solubility

$$$$
>  <SMILES CODE>
COc1c(C)c2c(c(O)c1C/C=C(\C)CCC(=O)Nc1nc3ccc(F)cc3s1)C(=O)OC2

>  <Solubility in PBMC culture>
limited solubility

$$$$

Output Solubility in PBMC culture of COc1c(C)c2c(c(O)c1C/C=C(\C)CCC(=O)Nc1nc3ccc(Cl)cc3s1)C(=O)OC2
limited solubility

Output Solubility in PBMC culture of COc1c(C)c2c(c(O)c1C/C=C(\C)CCC(=O)Nc1nc3ccc(C)cc3s1)C(=O)OC2
limited solubility
